molecular target: HIV-1 92RW020 Env (HIV-1 92RW020); experiment: cell-based or functional assay
Assay metric: IC50 (ug/ml), pseudovirus neutralization, TZM-bl assay (µg/mL)
Respond with the bare value in µg/mL.

Data request: Kindly indicate its recorded IC50 (ug/ml), pseudovirus neutralization, TZM-bl assay. Item: 1489_I13 (PG16) (TCN-120) (antibody, V domains shown) VH: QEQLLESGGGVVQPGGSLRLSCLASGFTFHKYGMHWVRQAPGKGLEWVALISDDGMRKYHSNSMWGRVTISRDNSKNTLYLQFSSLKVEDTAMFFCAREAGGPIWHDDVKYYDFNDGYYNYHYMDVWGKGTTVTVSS VL: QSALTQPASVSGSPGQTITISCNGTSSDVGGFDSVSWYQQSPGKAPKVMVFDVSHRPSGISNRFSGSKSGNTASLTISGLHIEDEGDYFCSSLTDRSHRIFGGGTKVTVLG
Data returned: 0.03

Data request: Answer with the recorded IC50 (ug/ml), pseudovirus neutralization, TZM-bl assay for the binder listed here: 1456_A12 (PG16) (TCN-117) (antibody, V domains shown) VH: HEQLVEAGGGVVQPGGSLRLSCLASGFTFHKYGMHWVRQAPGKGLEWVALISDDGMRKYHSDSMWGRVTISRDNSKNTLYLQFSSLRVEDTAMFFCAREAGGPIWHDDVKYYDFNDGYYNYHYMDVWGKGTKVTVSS VL: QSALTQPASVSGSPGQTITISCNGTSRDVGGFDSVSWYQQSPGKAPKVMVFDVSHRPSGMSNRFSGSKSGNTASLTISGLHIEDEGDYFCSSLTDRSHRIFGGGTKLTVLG
Data returned: 0.05

Data request: Complete the entry with IC50 (ug/ml), pseudovirus neutralization, TZM-bl assay for 1469_M23 (PG16) (TCN-118) (antibody, V domains shown) VH: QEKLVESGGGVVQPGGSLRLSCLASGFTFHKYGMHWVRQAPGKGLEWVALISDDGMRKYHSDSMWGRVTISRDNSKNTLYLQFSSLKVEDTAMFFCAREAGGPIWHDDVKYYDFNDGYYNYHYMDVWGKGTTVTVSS VL: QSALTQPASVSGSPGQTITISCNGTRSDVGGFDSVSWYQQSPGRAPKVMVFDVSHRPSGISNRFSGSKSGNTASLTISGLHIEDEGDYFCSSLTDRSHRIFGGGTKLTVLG
Data returned: 0.05
